ASSAYED_TARGET: human galectin-8C (C-terminal domain) (Homo sapiens)
Construct: 4N (N-terminal domain) 4C (C-terminal domain), 7, 8N, 8C, 9N, and 9C; made in house
Sequence (O00214 187-317 limits assumed): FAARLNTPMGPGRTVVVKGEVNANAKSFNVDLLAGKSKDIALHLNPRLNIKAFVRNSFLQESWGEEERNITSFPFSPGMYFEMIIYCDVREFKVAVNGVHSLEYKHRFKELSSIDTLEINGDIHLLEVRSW
MEASUREMENT_DESCRIPTION: competitive fluorescence polarization assay, galectin-8C
Assay type: binding
ASSAY_SETUP: Table 2, average and SEM, PBS
MEASURED_ATTRIBUTE: Kd

Request: Suppose we examine the compound CO[C@@H]1O[C@H](CO)[C@H](O)[C@H](CNC(=O)c2ccc(F)cc2)[C@H]1O ; what Kd value has been reported?
Response: > 4 mM

Request: Follow-up entry: CO[C@@H]1O[C@H](CO)[C@H](O)[C@H](CNC(=O)c2ccccc2F)[C@H]1O
Response: > 4 mM

Request: # repeat for CO[C@@H]1O[C@H](CO)[C@H](O)[C@H](CNC(=O)c2cccc(C(F)(F)F)c2)[C@H]1O
Response: > 4 mM

Request: Proceed to CO[C@@H]1O[C@H](CO)[C@H](O)[C@H](CNC(=O)c2ccc(C)cc2)[C@H]1O
Response: > 4 mM

Request: # iterate: CO[C@@H]1O[C@H](CO)[C@H](O)[C@@H](NC(=O)c2ccccc2)[C@H]1O
Response: > 4 mM
